Below, each entry is listed with its recorded Kd.
Target: T1, Cyno NRP-1 His (cynomolgus monkey, UniProt O14786 22-856 (human entry), limits assumed)
T1 construct: Recombinant monomeric protein; also called cynomolgus monkey NRP-1-His; cNRP-1; not shown: His tag
T1 chain: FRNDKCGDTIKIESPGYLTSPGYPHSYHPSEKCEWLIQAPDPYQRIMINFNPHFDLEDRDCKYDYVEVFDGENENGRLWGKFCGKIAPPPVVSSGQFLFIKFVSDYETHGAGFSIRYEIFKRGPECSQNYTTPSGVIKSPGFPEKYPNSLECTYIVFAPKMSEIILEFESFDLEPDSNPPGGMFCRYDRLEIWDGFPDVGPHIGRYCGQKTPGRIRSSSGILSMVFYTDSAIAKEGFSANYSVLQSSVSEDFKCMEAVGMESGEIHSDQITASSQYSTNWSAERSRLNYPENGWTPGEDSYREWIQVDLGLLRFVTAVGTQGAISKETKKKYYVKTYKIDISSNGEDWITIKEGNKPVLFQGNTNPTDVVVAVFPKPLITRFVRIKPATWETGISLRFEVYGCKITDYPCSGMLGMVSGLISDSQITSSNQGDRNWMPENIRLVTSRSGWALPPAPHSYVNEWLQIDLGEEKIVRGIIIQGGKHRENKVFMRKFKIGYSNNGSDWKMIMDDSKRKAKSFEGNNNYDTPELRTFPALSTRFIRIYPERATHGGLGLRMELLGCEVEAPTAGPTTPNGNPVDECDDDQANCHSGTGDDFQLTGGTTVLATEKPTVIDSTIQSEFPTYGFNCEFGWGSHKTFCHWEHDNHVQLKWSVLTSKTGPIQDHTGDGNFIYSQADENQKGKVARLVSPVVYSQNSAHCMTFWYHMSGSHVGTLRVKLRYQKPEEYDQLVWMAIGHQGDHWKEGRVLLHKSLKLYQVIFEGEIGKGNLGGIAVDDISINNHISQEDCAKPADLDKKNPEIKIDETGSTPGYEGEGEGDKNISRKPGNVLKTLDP
Test: BLI Octet QKe, IgG4 S228P on AHC sensor, multi-concentration monomeric antigen, global 1:1 fit
Property Measured: Kd (nM)

# Binder, Unit Descriptor, Reported
measured = [
    ("MAB13 IgG4 S228P (antibody, V domains shown) VH: QVQLQQWGAGLLKPSETLSLTCAVYGGSFRGYYWEWIRQPPGKGLEWIGEISHSGSTNYNPSLKSRVTISVDTSKNQFSLKLSSVTAADTAVYYCARARPYREPYGMDVWGQGTTVTVSS VL: DIQLTQSPSSVSASVGDRVTITCRASQDISSWLAWYQQKPGKAPKLLIYAASSLQSGVPSRFSGSGSGTDFTLTISSLQPEDFATYYCQQELAFPRTFGGGTKVEIKR", "nM", 0.94),
    ("MAB4 IgG4 S228P (antibody, V domains shown) VH: QVQLVQSGAEVKKPGASVKVSCKASGYTFSRYYMHWVRQAPGQGLEWMGIINPLGGSTLYAQKFQGRVTMTRDTSTSTVYMELSSLRSEDTAVYYCARDLGYYGSGMHVWGQGTLVTVSS VL: DIQMTQSPSSVSASVGDRVTITCRASQGISRWLAWYQQKPGKAPKLLIYAASSLQSGVPSRFSGSGSGTDFTLTISSLQPEDFATYYCQQANLLPFTFGGGTKVEIKR", "nM", 4.5),
    ("MAB2 IgG4 S228P (antibody, V domains shown) VH: QVQLVQSGAEVKKPGASVKVSCKASGYTFRSYYMLWVRQAPGQGLEWMGIIDPSDGSTSYAQKFQGRVTMTRDASTSTVYMELSSLRSEDTAVYYCARGARRITGYGMDVWGQGTTVIVSS VL: DIQMTQSPSSVSASVGDRVTITCRASQGISSWLAWYQQKPGKAPKLLIYAASNLQSGVPSRFSGSGSGTDFTLTISSLQPEDFATYYCQQASVFPFTFGGGTKVEIKR", "nM", 4.5),
]
